Biological target: poly(ADP-ribose)polymerase (Homo sapiens)
Sequence (P09874 whole entry): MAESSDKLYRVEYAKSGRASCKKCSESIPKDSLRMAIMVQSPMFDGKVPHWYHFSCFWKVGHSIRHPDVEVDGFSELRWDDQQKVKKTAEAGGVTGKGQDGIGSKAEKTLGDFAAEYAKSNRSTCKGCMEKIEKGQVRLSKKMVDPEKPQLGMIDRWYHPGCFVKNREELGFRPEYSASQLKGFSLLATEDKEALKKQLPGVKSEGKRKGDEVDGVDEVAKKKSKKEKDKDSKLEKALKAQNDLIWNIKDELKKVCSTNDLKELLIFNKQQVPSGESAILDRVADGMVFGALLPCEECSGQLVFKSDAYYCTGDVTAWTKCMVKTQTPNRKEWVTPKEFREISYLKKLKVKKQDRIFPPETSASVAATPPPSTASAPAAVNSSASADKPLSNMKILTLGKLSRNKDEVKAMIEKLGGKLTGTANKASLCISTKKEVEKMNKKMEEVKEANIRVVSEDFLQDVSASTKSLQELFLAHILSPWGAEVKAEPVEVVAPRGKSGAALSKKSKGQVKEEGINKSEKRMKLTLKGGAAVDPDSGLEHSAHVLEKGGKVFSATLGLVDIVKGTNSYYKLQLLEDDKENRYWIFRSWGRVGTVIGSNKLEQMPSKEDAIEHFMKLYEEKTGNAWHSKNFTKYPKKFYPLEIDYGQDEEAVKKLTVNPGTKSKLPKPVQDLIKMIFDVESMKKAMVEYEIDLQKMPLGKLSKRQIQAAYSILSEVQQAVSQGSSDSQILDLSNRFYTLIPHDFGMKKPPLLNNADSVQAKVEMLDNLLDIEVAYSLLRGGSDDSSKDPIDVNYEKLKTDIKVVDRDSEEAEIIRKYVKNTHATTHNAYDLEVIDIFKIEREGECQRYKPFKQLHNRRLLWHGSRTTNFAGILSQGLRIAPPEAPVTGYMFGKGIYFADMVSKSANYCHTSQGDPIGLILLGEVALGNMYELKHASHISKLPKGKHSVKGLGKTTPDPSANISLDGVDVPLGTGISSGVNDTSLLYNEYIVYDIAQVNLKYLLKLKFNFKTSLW
Experiment: Determination of inhibitory effect on poly(ADP-ribose)polymerase (enzyme activity, Ki, Km)
Format: biochemical
Details: 5.0 μM; read-out: Inhibitor Activity (%)
Consider the following molecules; for each one, report its inhibition at 5 µM.
Give a bare numeral; the unit % is implied.

Inquiry: Which inhibition at 5 µM is reported with poly(ADP-ribose)polymerase (Homo sapiens) for this entry: O=c1[nH]nc(O)c2cccc(O)c12 [Compound 27, 1,5-dihydroxy-3-hydro-4-phthalazinone] ?
Reply text: 82

Inquiry: API: value(readout= inhibition at 5 µM, system= poly(ADP-ribose)polymerase (Homo sapiens), query= NC(=O)c1cccc(NC=O)c1 [Compound 1, 3-formylaminobenzamide] )
Reply text: 66

Inquiry: Given the entry NC(=O)Nc1cccc(C(N)=O)c1 [Compound 8, 3-ureidobenzamide] , what inhibition at 5 µM was observed with poly(ADP-ribose)polymerase (Homo sapiens)?
Reply text: 61

Inquiry: Any idea what inhibition at 5 µM came out for CNC(=O)Nc1cccc(C(N)=O)c1 [Compound 9, 3-methylureidobenzamide] on poly(ADP-ribose)polymerase (Homo sapiens)?
Reply text: 61

Inquiry: Requested read-out inhibition at 5 µM, target or system poly(ADP-ribose)polymerase (Homo sapiens), entry N=C(N)Nc1cccc(C(N)=O)c1 [Compound 26, 3-(guanidino)benzamide]
Reply text: 32

These entries and their values trace back to patent US5719151A.
